# measurement target: IDH1 R132H (Homo sapiens, UniProt O75874, R132H)
# Sequence (O75874 whole entry R132H): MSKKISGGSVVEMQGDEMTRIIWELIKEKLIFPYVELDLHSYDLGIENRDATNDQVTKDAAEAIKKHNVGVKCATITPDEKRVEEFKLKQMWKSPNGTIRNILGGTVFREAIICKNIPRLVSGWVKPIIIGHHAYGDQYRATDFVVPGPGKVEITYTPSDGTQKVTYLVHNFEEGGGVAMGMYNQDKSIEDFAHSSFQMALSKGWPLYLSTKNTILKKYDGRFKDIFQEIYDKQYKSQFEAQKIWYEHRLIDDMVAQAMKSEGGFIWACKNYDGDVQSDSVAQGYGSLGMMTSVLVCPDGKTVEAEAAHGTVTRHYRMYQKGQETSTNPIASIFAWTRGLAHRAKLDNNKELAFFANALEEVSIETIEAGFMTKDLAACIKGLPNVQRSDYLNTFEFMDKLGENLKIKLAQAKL
# measurement description: Assay for IDH1 R132H inhibitors (NADPH/aKG, resazurin detection)
# Format: biochemical
# condition notes: enzyme assay of Example 12; read-out: IDH1R132H IC50
Reported IC50 values for the following compounds.

1) COC(=O)N1CCN(c2nc(C3CC3)c(-c3cccc4cnccc34)cc2C#N)C[C@H]1C1CC1 ... 500 to 1000 nM
2) C=Cc1ncc2c(-c3cc(C#N)c(N4CCN(C(=O)CCO)[C@H](C5CC5)C4)nc3C3CC3)cccc2n1 [Compound 737] ... < 500 nM
3) C[C@@H]1CN(c2nc(C3CC3)c(Oc3ccnc(Cl)c3)cc2C#N)CCN1C(=O)CCO ... < 500 nM
4) C=CC(=O)N1CCC=C(c2c(C3CC3)nc(N3CCN(C(=O)CCOC)[C@H](C4CC4)C3)c(C#N)c2C)C1 ... < 500 nM
5) C=Cc1cc(-c2cc(C#N)c(N3CCN(C(=O)CC4CCO4)[C@H](C)C3)nc2C2CC2)ccn1 (some centres unmarked) ... < 500 nM
6) C=Cc1cc(-c2cc(C#N)c(N3CCN(C(=O)CCO)[C@H](C4CC4)C3)nc2C2CC2)c2cccnc2n1 ... < 500 nM

Enquiry: Give its IC50 value. Item: N#Cc1cc(-c2cnc3cnccn23)c(C2CC2)nc1N1CCN(C(=O)C2CC2)[C@H](C2CC2)C1
Return: < 500 nM

Enquiry: Request: N#Cc1cc(Cc2ccnc(Cl)c2)c(C2CC2)nc1N1CCN(C(=O)CCO)[C@H](C2CC2)C1
Return: < 500 nM
